assayed_target: E1E2 of HCV isolate UKN4.11.1 (genotype 4) (Hepatitis C virus genotype 4)
assay_comment: cell-based or functional assay

[
  {
    "binder": "AT12-010 (antibody, V domains shown) VH: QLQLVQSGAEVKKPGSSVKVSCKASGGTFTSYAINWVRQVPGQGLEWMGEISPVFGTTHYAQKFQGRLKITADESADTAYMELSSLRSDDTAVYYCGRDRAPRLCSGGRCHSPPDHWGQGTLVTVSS VL: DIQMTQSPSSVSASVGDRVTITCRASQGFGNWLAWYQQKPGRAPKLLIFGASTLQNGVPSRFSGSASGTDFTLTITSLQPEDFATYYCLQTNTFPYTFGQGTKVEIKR",
    "IC90, HCVpp neutralization": "> 50 µg/mL"
  }
]
